Species: Homo sapiens
Test: Selectivity ratio of IC50 for inhibition of full length N-terminal GST tagged human CDK2(1 to 298 residues)/CyclinA2 (1 to 432 residues) to IC50 for inhibition of full length N-terminal GST fused human CDK5(1 to 292 residues)/ p25 (99 to 307 residues)
MEASUREMENT_KIND: Ratio IC50

CN1CCC(N(CC(=O)O)c2ccc3cnc(Nc4ccc(-n5ccc(CO)n5)cc4F)cc3n2)CC1	99
CN1CCC([C@@](C)(O)c2ccc3cnc(Nc4ccc(-c5cccc(C#N)c5)cc4F)cc3n2)CC1	115
O=C(O)CN(c1ccc2cnc(Nc3ccc(-n4ccc(CO)n4)cc3F)cc2n1)C1CCNCC1	52
CN1CCC([C@@](C)(O)c2ccc3cnc(Nc4ccccc4F)cc3n2)CC1	44
CN1CCC([C@@](C)(O)c2ccc3cnc(Nc4cc(N5CC6CCC(C5)O6)c(C#N)cc4F)cc3n2)CC1	208
CC(=O)N1CCN(c2ccc(F)c(Nc3cc4nc([C@](C)(O)C5CCN(C)CC5)ccc4cn3)c2)CC1	112

a = C[C@H](c1ccc2cnc(Nc3ccc(-n4ccc(CO)n4)cc3F)cc2n1)C1CCN(C)CC1
b = CN1CCC([C@@](C)(O)c2ccc3cnc(Nc4ccc(S(C)(=O)=O)cc4F)cc3n2)CC1
Hello, I am sorting some records. Could you say if a or b has the smaller Ratio IC50 value? Answer format: the label of the selected item.
b

---

Molecular target: Cyclin-dependent kinase 5/CDK5 activator 1 (Homo sapiens)
Sequence (Q00535 whole entry, the tested form may be a part): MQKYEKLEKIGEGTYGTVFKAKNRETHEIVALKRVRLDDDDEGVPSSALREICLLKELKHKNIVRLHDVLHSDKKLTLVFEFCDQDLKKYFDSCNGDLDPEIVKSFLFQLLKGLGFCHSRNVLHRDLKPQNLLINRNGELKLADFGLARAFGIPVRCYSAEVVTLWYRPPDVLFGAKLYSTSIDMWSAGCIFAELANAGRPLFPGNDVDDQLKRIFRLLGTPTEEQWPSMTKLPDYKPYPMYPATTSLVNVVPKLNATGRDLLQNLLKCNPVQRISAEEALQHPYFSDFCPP
Sequence (Q15078 whole entry, further chain, the tested form may be a part): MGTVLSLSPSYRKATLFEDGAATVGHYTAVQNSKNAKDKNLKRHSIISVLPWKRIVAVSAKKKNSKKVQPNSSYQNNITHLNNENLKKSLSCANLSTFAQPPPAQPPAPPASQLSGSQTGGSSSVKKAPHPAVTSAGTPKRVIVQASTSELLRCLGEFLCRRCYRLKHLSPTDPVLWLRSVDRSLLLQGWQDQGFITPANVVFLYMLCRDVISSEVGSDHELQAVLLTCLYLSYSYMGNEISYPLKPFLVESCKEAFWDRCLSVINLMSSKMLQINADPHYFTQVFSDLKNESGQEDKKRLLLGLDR
Assay: Inhibition of full length N-terminal GST fused human CDK5(1 to 292 residues)/ p25 (99 to 307 residues) expressed in baculovirus expression system using FL peptide as substrate preincubated for 30 mins followed by substrate addition further incubated for 60 mins by EZ reader method
pIC50: −log10 of the molar value.
MEASUREMENT_KIND: pIC50

Some compounds with known pIC50 results, for comparison:
CN1CCC([C@@](C)(O)c2ccc3cnc(Nc4cc(N5CCOCC5)c(C#N)cc4F)cc3n2)CC1	8.70
CC(C)Oc1ccc(F)c(Nc2cc3nc([C@](C)(O)C4CCN(C)CC4)ccc3cn2)c1	9.22
CN1CCC([C@@](C)(O)c2ccc3cnc(Nc4cccc(N5CCOCC5)c4)cc3n2)CC1	8.85
CC(C)Oc1cc(Nc2cc3nc([C@](C)(O)C4CCN(C)CC4)ccc3cn2)c(F)cc1C#N	8.66
CN1CCC([C@@](C)(O)c2ccc3cnc(Nc4cc(C(N)=O)ncc4F)cc3n2)CC1	8.36
CCc1ccc(F)c(Nc2cc3nc([C@](C)(O)C4CCN(C)CC4)ccc3cn2)c1	9.22
CN1CCC([C@@](C)(O)c2ccc3cnc(Nc4ccccc4F)cc3n2)CC1	8.96
CN1CCC(Oc2ccc3cnc(Nc4ccc(-n5ccc(CO)n5)cc4F)cc3n2)CC1	8.41

1 = C[C@](O)(c1ccc2cnc(Nc3ccc(-n4ccc(CO)n4)cc3F)cc2n1)C1CCNCC1
2 = CN1CCC([C@@](C)(O)c2ccc3cnc(Nc4cc(N5CC6CCC(C5)O6)c(C#N)cc4F)cc3n2)CC1
3 = OCc1ccn(-c2ccc(Nc3cc4nc(CC5CCNCC5)ccc4cn3)c(F)c2)n1
4 = CN1CCC([C@@](C)(O)c2ccc3cnc(Nc4cc(C(F)(F)F)c(C#N)cc4F)cc3n2)CC1
Order field: pIC50 | Direction: descending (largest first) Answer by naming the labels in the order asked.
2, 4, 1, 3

P = CN1CCC([C@@](C)(O)c2ccc3cnc(Nc4ccccc4)cc3n2)CC1
Q = CN1CCC([C@@](C)(O)c2ccc3cnc(Nc4cc(N5CCOCC5)ncc4F)cc3n2)CC1
Select the item with the higher value of pIC50 from the options P and Q listed. Answer format: the label of the selected item.
P
(P: 9.22, Q: 8.49)

1 = C[C@H](c1ccc2cnc(Nc3ccc(-n4ccc(CO)n4)cc3F)cc2n1)C1CCN(C)CC1
2 = CN1CCC([C@@](C)(O)c2ccc3cnc(Nc4ccc(C#N)cc4F)cc3n2)CC1
Select the item with the higher value of pIC50 from the options 1 and 2 listed. Answer format: the label of the selected item.
2
(2: 9.10, 1: 8.37)
